System: rice
experimentSummary: Low temperature assay on rice seedlings
Type: in vivo
particulars: 0.001 mg/l, 5 °C, 12 days
Text: According to a low temperature assay, we measured parameters including plant height, number of leaf, area of leaf, number of tiller, weight of root at low temperature to completely determine effects of the natural brassinolide analogues on the resistance to low temperature of a plant. The natural brassinolide analogues, BR1, BR2, BR3, BR4, BR5 and BR6, used herein, were those prepared by the method of Example 1. […]
quantityKind: Number of leaf

molecule	testedOn	quantityKind	measuredResult
C=C(C(C)C)[C@@H](O)[C@H](O)[C@@H](C)[C@H]1CCC2C3COC(=O)C4C[C@H](O)[C@H](O)C[C@]4(C)C3CC[C@@]21C (stereo partly drawn)	rice	Number of leaf	3
CC[C@@H](C(C)C)[C@@H](O)[C@H](O)[C@@H](C)[C@H]1CCC2C3COC(=O)C4C[C@H](O)[C@H](O)C[C@]4(C)C3CC[C@@]21C (stereo partly drawn)	rice	Number of leaf	3
CC(C)[C@H](C)[C@@H](O)[C@H](O)[C@@H](C)[C@H]1CCC2C3COC(=O)C4C[C@H](O)[C@H](O)C[C@]4(C)C3CC[C@@]21C (stereo partly drawn)	rice	Number of leaf	3
